target: CSNK1G3 (Homo sapiens, UniProt Q9Y6M4); construct: purchased KinomeScan, a division of Ambit Biosciences; assay: KinomeScan competition binding assay; conditions: 10 μM compound
Sequence (Q9Y6M4 whole entry): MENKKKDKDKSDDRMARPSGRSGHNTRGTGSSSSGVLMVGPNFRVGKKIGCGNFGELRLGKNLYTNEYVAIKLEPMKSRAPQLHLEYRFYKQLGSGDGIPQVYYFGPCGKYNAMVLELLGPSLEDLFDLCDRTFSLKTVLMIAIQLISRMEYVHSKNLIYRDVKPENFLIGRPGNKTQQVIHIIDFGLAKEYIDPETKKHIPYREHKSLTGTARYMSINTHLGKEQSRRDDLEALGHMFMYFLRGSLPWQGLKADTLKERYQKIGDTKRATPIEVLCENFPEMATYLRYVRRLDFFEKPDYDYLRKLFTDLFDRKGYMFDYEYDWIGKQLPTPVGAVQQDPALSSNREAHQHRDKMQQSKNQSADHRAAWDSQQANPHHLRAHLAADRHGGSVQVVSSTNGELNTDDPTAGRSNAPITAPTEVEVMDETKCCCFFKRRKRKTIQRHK
attributeMeasured: POC ligand binding, CSNK1G3
Number first, unit second.

{"compound": "N#Cc1ccc2ncnc(NCc3ccc(Cl)cc3)c2c1 [compound 20]", "assaySystem": "CSNK1G3 (Homo sapiens, UniProt Q9Y6M4)", "measurement": "82 POC"}

Recorded result, CCCNc1ncnc2ccc(N3CCOCC3)cc12 [compound 46] , POC ligand binding, CSNK1G3: 100 POC

Recorded result, CC(C)CNc1ncnc2ccc(C(F)(F)F)cc12 [compound 45] , POC ligand binding, CSNK1G3: 50 POC

Recorded result, N#Cc1ccc2ncnc(NCCc3ccc4ccccc4c3)c2c1 [compound 26] , POC ligand binding, CSNK1G3: 50 POC

Recorded result, COc1ccc2ncnc(NCCc3ccccc3)c2c1 [compound 44] , POC ligand binding, CSNK1G3: 84 POC

Recorded result, N#Cc1ccc2ncnc(NCCc3ccccc3)c2c1 [compound 1] , POC ligand binding, CSNK1G3: 16 POC
